In this section we review reported mass density values for a set of compounds.
applied-conditions: 293.15 K; 101.33 kPa; Liquid; Vibrating tube method
observed-property: mass density (kg/m3)

>>> data_value("CCn1cc[n+](C)c1.F[B-](F)(F)F [1-ethyl-3-methylimidazolium tetrafluoroborate]")
1284.4
>>> data_value("CCCCCCn1cc[n+](C)c1.F[P-](F)(F)(F)(F)F [1-hexyl-3-methylimidazolium hexafluorophosphate]")
1297
>>> data_value("CCCCCCCC[n+]1ccn(C)c1.F[P-](F)(F)(F)(F)F [1-octyl-3-methylimidazolium hexafluorophosphate]")
1240.8
>>> data_value("CCCCCCn1cc[n+](C)c1.F[B-](F)(F)F [1-hexyl-3-methylimidazolium tetrafluoroborate]")
1148.5

This collection of values is drawn from the NIST ThermoML archive (doi:10.1021/je800224k).
